Data provenance is paper PMC3893156.

Target: Phosphomannomutase 2 (wt-PMM2) (Homo sapiens)
Sequence (O15305 1-246): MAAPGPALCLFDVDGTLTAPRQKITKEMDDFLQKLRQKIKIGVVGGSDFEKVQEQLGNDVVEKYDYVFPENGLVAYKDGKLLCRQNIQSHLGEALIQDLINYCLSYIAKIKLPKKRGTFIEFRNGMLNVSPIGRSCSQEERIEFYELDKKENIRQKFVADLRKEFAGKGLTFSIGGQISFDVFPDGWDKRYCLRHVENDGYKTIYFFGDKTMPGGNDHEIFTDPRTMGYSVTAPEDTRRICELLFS
Assay: activation of purified enzyme
observable: EC50

IN: Which value of EC50 has been reported for O=P(O)(O)OC[C@H]1O[C@H](OP(=O)(O)O)[C@H](O)[C@@H](O)[C@@H]1O [Glc-1,6-P2, glucose-1,6-bisphosphate] in the records?
OUT: 10 µM
